# credit: patent US20240132498A1

- system under test: CYP2C19 (Homo sapiens)
- Construct: from tissue; host or cells: pooled human liver microsomes
- protocol text: Time-dependent inhibition of CYP450 enzymes in human liver microsomes: CYP2C19
- Type: in vitro ADME
- assay conditions: human, pooled human liver microsomes; CYP2C19, 50 μM, 30 minutes incubation; read-out: % Activity NADPH T30
assay endpoint: activity at 30 min, 50 µM (%)
Answers are plain numbers, in %.

Task: State the recorded activity at 30 min, 50 µM for this entry: C[C@H]1CC[C@H](N2CC(=O)N(Cc3ccc(F)c(F)c3)C3(CN(C=O)C3)C2=O)CC1
Result: 75

----------
- protocol text: Monkey single dose pharmacokinetics
- Format: in vivo
- assay conditions: male, plasma, iv, Cynomolgus Monkey
assay endpoint: half-life (min)
One number for each entry, in min.

Below are worked cases with known answers.
>>> result_number("CC(=O)N1CC2(C1)C(=O)N(c1ccc(C#N)cc1F)CC(=O)N2Cc1ccc(C(F)(F)F)cc1 [Comparator D]")
1090
>>> result_number("C[C@H]1CC[C@H](N2CC(=O)N(Cc3ccc(F)c(F)c3)C3(CN(C=O)C3)C2=O)CC1 [Compound 1]")
596
>>> result_number("O=C1[C@H](C2COC2)N(Cc2ccc(C(F)(F)F)cc2)C(=O)CN1c1ncc(Cl)cc1F [Comparator C, reference compound]")
694

Kindly consider the entry below.
Task: Can you share its half-life? I mean this molecule: O=CN1CC2(C1)C(=O)N([C@H]1CC[C@H](C(F)F)CC1)CC(=O)N2Cc1ccc(C(F)(F)F)cc1 [Comparator E]
Result: 960

----------
- protocol text: Kinetic solubility of crystalline Form II in solvents
- Assay type: physicochemical
- assay conditions: acetone, 25 °C, organic solvent or mixture, thermodynamic from solid, Acetone, read-out: Average Solubility
assay endpoint: solubility at 4 h

Task: Would you mind telling me what solubility at 4 h value was observed for C[C@H]1CC[C@H](N2CC(=O)N(Cc3ccc(F)c(F)c3)C3(CN(C=O)C3)C2=O)CC1 [Form II] ?
Result: > 100 mg/mL

----------
- protocol text: Kinetic solubility of crystalline Form II in solvents
- Format: physicochemical
- assay conditions: IPA, 25 °C, organic solvent or mixture, thermodynamic from solid, IPA, single replicate, read-out: Solubility
assay endpoint: solubility at 4 h

Task: Sample C[C@H]1CC[C@H](N2CC(=O)N(Cc3ccc(F)c(F)c3)C3(CN(C=O)C3)C2=O)CC1 [Form II] — what was its solubility at 4 h?
Result: 9800 µg/mL

----------
- system under test: CYP2D6 (Homo sapiens, UniProt P10635)
- Construct: from tissue; host or cells: pooled human liver microsomes
- Sequence (P10635 whole entry): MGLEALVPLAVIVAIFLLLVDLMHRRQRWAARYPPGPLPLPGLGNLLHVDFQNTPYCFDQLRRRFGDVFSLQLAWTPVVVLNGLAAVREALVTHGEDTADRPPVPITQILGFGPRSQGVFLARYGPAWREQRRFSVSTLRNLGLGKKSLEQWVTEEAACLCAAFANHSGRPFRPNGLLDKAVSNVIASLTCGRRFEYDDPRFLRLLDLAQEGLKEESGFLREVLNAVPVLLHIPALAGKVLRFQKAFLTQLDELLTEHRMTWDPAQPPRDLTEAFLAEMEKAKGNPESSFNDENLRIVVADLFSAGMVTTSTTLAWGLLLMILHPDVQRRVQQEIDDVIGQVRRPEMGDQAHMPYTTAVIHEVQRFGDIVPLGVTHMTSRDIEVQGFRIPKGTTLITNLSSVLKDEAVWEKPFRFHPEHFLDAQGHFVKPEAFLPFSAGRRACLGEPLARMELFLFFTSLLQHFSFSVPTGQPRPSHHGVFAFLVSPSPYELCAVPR
- protocol text: Time-dependent inhibition of CYP450 enzymes in human liver microsomes: CYP2D6
- Assay type: in vitro ADME
- assay conditions: human, pooled human liver microsomes; CYP2D6, 25 μM, time zero; read-out: % Activity NADPH T0
assay endpoint: activity at 0 min, 25 µM (%)
One number for each entry, in %.

Task: Checklist item: activity at 0 min, 25 µM tested on CYP2D6 (Homo sapiens, UniProt P10635), entry C[C@H]1CC[C@H](N2CC(=O)N(Cc3ccc(F)c(F)c3)C3(CN(C=O)C3)C2=O)CC1 [Compound 1] , value?
Result: 118

----------
- system under test: CYP1A2 (Homo sapiens)
- Construct: from tissue; host or cells: pooled human liver microsomes
- Sequence (P05177 whole entry): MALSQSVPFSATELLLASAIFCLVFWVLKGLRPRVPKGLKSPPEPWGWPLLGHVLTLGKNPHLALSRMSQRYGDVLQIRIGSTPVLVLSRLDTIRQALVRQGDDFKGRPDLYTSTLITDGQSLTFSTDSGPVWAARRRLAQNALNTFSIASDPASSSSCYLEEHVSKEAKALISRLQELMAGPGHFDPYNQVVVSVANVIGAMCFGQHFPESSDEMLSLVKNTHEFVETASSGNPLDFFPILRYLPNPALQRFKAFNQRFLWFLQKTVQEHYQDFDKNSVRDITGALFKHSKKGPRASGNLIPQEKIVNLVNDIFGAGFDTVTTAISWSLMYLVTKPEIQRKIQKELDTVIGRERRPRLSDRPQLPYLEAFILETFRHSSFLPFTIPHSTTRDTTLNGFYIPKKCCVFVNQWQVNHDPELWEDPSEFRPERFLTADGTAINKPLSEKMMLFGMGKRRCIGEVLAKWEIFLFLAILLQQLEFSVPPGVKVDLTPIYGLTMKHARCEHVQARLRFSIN
- protocol text: Time-dependent inhibition of CYP450 enzymes in human liver microsomes: CYP1A2
- Type: in vitro ADME
- assay conditions: human, pooled human liver microsomes; CYP1A2, 25 μM, time zero; read-out: % Activity NADPH T0
assay endpoint: activity at 0 min, 25 µM (%)
One number for each entry, in %.

Task: Quick check: activity at 0 min, 25 µM of C[C@H]1CC[C@H](N2CC(=O)N(Cc3ccc(F)c(F)c3)C3(CN(C=O)C3)C2=O)CC1 ?
Result: 95

----------
- protocol text: Kinetic solubility of crystalline Form II in solvents
- Format: physicochemical
- assay conditions: Toluene, 25 °C, organic solvent or mixture, thermodynamic from solid, Toluene, read-out: Average Solubility
assay endpoint: solubility at 4 h (µg/mL)
Give bare numbers, in µg/mL.

Task: Report solubility at 4 h for C[C@H]1CC[C@H](N2CC(=O)N(Cc3ccc(F)c(F)c3)C3(CN(C=O)C3)C2=O)CC1 [Form II] please.
Result: 9600

----------
- system under test: CYP2C19 (Homo sapiens, UniProt P33261)
- Construct: from tissue; host or cells: pooled human liver microsomes
- Sequence (P33261 whole entry): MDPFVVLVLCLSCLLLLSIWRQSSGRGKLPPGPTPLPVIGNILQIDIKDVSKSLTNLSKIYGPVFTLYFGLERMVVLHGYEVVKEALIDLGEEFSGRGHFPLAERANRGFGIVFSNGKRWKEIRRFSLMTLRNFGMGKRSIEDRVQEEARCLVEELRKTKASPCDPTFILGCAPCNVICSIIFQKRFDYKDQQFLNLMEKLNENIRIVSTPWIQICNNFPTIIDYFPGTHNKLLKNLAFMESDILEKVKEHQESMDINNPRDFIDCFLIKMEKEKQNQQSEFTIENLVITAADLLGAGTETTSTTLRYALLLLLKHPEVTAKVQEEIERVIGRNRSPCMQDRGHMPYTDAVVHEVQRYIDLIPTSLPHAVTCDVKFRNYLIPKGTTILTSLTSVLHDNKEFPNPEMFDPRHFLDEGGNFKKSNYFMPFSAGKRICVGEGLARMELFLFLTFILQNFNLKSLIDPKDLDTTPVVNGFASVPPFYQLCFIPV
- protocol text: Time-dependent inhibition of CYP450 enzymes in human liver microsomes: CYP2C19
- Type: in vitro ADME
- assay conditions: human, pooled human liver microsomes; CYP2C19, 25 μM, time zero; read-out: % Activity NADPH T0
assay endpoint: activity at 0 min, 25 µM (%)
Give bare numbers, in %.

Task: # get_value(readout='activity at 0 min, 25 µM', item= C[C@H]1CC[C@H](N2CC(=O)N(Cc3ccc(F)c(F)c3)C3(CN(C=O)C3)C2=O)CC1 [Compound 1] )
Result: 117

----------
- protocol text: Kinetic solubility of crystalline Form II in solvents
- Format: physicochemical
- assay conditions: Toluene, 25 °C, organic solvent or mixture, thermodynamic from solid, Toluene, single replicate, read-out: Solubility
assay endpoint: solubility at 4 h (µg/mL)
One number for each entry, in µg/mL.

Task: Record request: solubility at 4 h value, item C[C@H]1CC[C@H](N2CC(=O)N(Cc3ccc(F)c(F)c3)C3(CN(C=O)C3)C2=O)CC1 [Form II]
Result: 9500

----------
- system under test: CYP3A4 (Homo sapiens)
- Construct: from tissue; host or cells: pooled human liver microsomes
- protocol text: Time-dependent inhibition of CYP450 enzymes in human liver microsomes: CYP3A4-T (testosterone probe)
- Format: in vitro ADME
- assay conditions: human, pooled human liver microsomes; CYP3A4-T (testosterone probe), 50 μM, 30 minutes incubation; read-out: % Activity NADPH T30
- Description: An assessment of the time-dependent Inhibitory Potential of the test compounds against Principal Human Cytochrome P450 Isozymes using Human Liver Microsomes was also carried out using standard methods (Grimm et al, Drug Metab. Dispos., Jul; 37(7):1355-70. doi: 10.1124/dmd.109.026716, 2009). […] LC-MS/MS was used to quantify metabolite formation. […]
assay endpoint: activity at 30 min, 50 µM
Form entry: enter the amount, then its unit.

>>> result("O=C1[C@H](C2COC2)N(Cc2ccc(C(F)(F)F)cc2)C(=O)CN1c1ncc(Cl)cc1F [Comparator C, reference compound]")
"19%"

Task: Observed activity at 30 min, 50 µM on CYP3A4 (Homo sapiens) for C[C@H]1CC[C@H](N2CC(=O)N(Cc3ccc(F)c(F)c3)C3(CN(C=O)C3)C2=O)CC1 , please.
Result: 98%

----------
- system under test: CYP3A4 (Homo sapiens, UniProt P08684)
- Construct: from tissue; host or cells: pooled human liver microsomes
- Sequence (P08684 whole entry): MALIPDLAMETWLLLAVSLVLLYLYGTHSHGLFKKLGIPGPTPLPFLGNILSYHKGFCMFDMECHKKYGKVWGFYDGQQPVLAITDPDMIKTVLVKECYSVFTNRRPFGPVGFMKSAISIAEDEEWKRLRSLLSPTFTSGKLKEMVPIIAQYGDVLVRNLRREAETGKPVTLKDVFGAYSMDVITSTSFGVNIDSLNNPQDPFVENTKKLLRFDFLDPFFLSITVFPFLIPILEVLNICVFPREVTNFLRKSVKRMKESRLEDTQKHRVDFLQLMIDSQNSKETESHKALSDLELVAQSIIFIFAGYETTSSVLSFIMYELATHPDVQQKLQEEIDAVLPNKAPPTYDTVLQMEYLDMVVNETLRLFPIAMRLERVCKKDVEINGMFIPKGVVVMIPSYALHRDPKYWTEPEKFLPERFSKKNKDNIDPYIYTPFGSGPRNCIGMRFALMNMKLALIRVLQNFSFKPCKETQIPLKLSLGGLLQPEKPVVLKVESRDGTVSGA
- protocol text: Time-dependent inhibition of CYP450 enzymes in human liver microsomes: CYP3A4-T (testosterone probe)
- Type: in vitro ADME
- assay conditions: human, pooled human liver microsomes; CYP3A4-T (testosterone probe), 25 μM, 30 minutes incubation; read-out: % Activity NADPH T30
assay endpoint: activity at 30 min, 25 µM (%)
Give bare numbers, in %.

>>> result_number("C[C@H]1CC[C@H](N2CC(=O)N(Cc3ccc(F)c(F)c3)C3(CN(C=O)C3)C2=O)CC1")
90

Continue with the compound presented below.
Task: Form field: reported activity at 30 min, 25 µM of O=C1[C@H](C2COC2)N(Cc2ccc(C(F)(F)F)cc2)C(=O)CN1c1ncc(Cl)cc1F [Comparator C, reference compound]
Result: 23

----------
- protocol text: Dog single dose pharmacokinetics
- Format: in vivo
- assay conditions: male, plasma, intravenous, beagle dogs, read-out: Vss
assay endpoint: Vd (L/kg)
Numbers only, in L/kg.

>>> result_number("O=CN1CC2(C1)C(=O)N([C@H]1CC[C@H](C(F)F)CC1)CC(=O)N2Cc1ccc(C(F)(F)F)cc1")
4.1
>>> result_number("CC(=O)N1CC2(C1)C(=O)N(c1ccc(C#N)cc1F)CC(=O)N2Cc1ccc(C(F)(F)F)cc1")
6.7
>>> result_number("O=C1[C@H](C2COC2)N(Cc2ccc(C(F)(F)F)cc2)C(=O)CN1c1ncc(Cl)cc1F [Comparator C, reference compound]")
5.91
>>> result_number("C[C@H]1CC[C@H](N2CC(=O)N(Cc3ccc(F)c(F)c3)C3(CN(C=O)C3)C2=O)CC1")
4.23

Now for a further compound.
Task: # get_value(readout='Vd', item= O=CN1CC2(C1)C(=O)N(c1ccc(F)cc1F)CC(=O)N2Cc1ccc(Cl)cc1 )
Result: 5.2

----------
- protocol text: Long-term storage stability of the solid (1, 3, 6 months)
- Type: physicochemical
- assay conditions: 40° C./75% RH, 1 month
assay endpoint: Total Impurities

Task: Item C[C@H]1CC[C@H](N2CC(=O)N(Cc3ccc(F)c(F)c3)C3(CN(C=O)C3)C2=O)CC1 [Form II] has what recorded Total Impurities?
Result: 0.92%
